Can you tell me apparent Kd (screen) for the items I'm about to list?
Molecular target: T1, TNFR1 (Homo sapiens, UniProt P19438)
T1 chain: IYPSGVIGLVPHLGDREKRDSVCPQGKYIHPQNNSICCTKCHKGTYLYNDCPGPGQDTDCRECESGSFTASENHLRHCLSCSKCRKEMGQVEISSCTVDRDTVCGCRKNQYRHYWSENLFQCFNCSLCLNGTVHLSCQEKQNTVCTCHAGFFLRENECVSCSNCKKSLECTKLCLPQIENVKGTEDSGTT
Test: yeast display SC50

Given item E5V (designed binder) SMEEVVEKAAKEYEKKKKEAIEKHLEKLKAKDKEAAERFLKELEEAAKEYAKDEAKTMSEEEAKRRAKKYKEKVLLSELSEEEQKEIKEAEEKLVRTILKYVEEAAK , the value recorded as its apparent Kd (screen) is 1.27 nM

Given item L99H (designed binder) SMEEEVEKAAKEYEKKKKEAIEKHLEKLKAKDKEAAERFLKELEEAAKEYAKDEAKTMSEEEAKRRAKKYKEKVLLSELSEEEQKEIKEAEEKLVRTIHKYVEEAAK , the value recorded as its apparent Kd (screen) is 4.83 nM

Given item A35P (designed binder) SMEEEVEKAAKEYEKKKKEAIEKHLEKLKAKDKEPAERFLKELEEAAKEYAKDEAKTMSEEEAKRRAKKYKEKVLLSELSEEEQKEIKEAEEKLVRTILKYVEEAAK , the value recorded as its apparent Kd (screen) is 1.4 nM

Given item E37T (designed binder) SMEEEVEKAAKEYEKKKKEAIEKHLEKLKAKDKEAATRFLKELEEAAKEYAKDEAKTMSEEEAKRRAKKYKEKVLLSELSEEEQKEIKEAEEKLVRTILKYVEEAAK , the value recorded as its apparent Kd (screen) is 0.539 nM
